Consider the following IC50 values measured on MMP-1 (Homo sapiens, UniProt P03956).
Sequence (P03956 100-269 limits assumed): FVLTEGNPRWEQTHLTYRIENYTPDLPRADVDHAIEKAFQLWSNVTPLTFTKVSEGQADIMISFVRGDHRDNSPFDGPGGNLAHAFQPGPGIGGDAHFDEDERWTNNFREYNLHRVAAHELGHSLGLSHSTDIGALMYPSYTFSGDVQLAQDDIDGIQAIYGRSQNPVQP
Counter-ions that a name gives are not always drawn.

Reference set (2 entries):
>  <molecule>
Cc1cc(C2CCN(S(=O)(=O)C3(C(=O)NO)CCOCC3)CC2)ccc1-c1cccc(OCCN)c1.Cl [Example 14, hydrochloride]

>  <IC50>
> 1000 nM

$$$$
>  <molecule>
Cc1cc(C2CCN(S(=O)(=O)C3(C(=O)NO)CCNCC3)CC2)ccc1-c1cccc(OCCO)n1 [Example 6, dihydrochloride]

>  <IC50>
> 1000 nM

$$$$

Here is another molecule to look at.
So what IC50 did Cc1cc(C2CCN(S(=O)(=O)C3(C(=O)NO)CCOCC3)CC2)ccc1-c1cccc(OC[C@@H](O)CO)n1 [Example 4] get with MMP-1 (Homo sapiens, UniProt P03956)?
> 1000 nM

----------
measurement.label: melting point

Solved cases below.
>  <molecule>
CCOc1cccc(-c2ccc(C3CCN(S(=O)(=O)C4(C(=O)NO)CC(O)C(O)C4)CC3)cc2C)n1 (stereo not shown) [Example 22]

>  <observed.value>
204 to 205 °C

$$$$
>  <molecule>
Cc1cc(C2CCN(S(=O)(=O)C3(C(=O)NO)CCOCC3)CC2)ccc1-c1cccc(OC[C@H](O)CO)n1

>  <observed.value>
125 to 130 °C

$$$$
>  <molecule>
Cc1cc(C2CCN(S(=O)(=O)C3(C(=O)NO)CCOCC3)CC2)ccc1-c1cccc(OCCN)c1.Cl

>  <observed.value>
208 to 210 °C

$$$$

Name the reported melting point value associated with the molecule COc1cccc(-c2ccc(C3CCN(S(=O)(=O)C4(C(=O)NO)CC(O)C(O)C4)CC3)cc2C)c1 (stereo not shown) [Example 25]
188 to 189 °C

Record: Cc1cc(C2CCN(S(=O)(=O)C(C)(C)C(=O)NO)CC2)ccc1-c1cccc(OC[C@@H](O)CO)c1
152 to 154 °C

// next record Cc1cc(C2CCN(S(=O)(=O)C3(C(=O)NO)CC(O)C(O)C3)CC2)ccc1-c1cccc(OCCO)n1 (stereo not shown)
215 to 218 °C

----------
Catalogue of melting point readings, one per entry.

Some solved entries appear below for comparison.
>  <molecule>
CNCc1cccc(-c2ccc(C3CCN(S(=O)(=O)C4(C(=O)NO)CCOCC4)CC3)cc2C)c1.Cl

>  <melting point>
213 to 214 °C

$$$$
>  <molecule>
COc1cccc(-c2ccc(C3CCN(S(=O)(=O)C4(C(=O)NO)CC(O)C(O)C4)CC3)cc2C)c1 (stereo not shown) [Example 24]

>  <melting point>
201 to 202 °C

$$$$
>  <molecule>
CCOc1cccc(-c2ccc(C3CCN(S(=O)(=O)C4(C(=O)NO)CC(O)C(O)C4)CC3)cc2C)n1 (stereo not shown) [Example 23]

>  <melting point>
196 to 197 °C

$$$$

Kindly review the next molecule as well.
# get_value(readout='melting point', item= Cc1cc(C2CCN(S(=O)(=O)C3(C(=O)NO)CCOCC3)CC2)ccc1-c1cccc(CN2CCOCC2)c1 )
177 to 179 °C
